Method Notes: qHTS of pediatric cancer cell lines to identify multiple opportunities for drug repurposing: Primary screen for BT-37 cells (AID 1347094); further: potency means the concentration at half of the fitted maximal effect
Condition Info: BT-37 viability, CellTiter-Glo luminescence, 48 h; series mostly up to 57.3 µM
Procedure: Drug repurposing or repositioning has been offered as a strategy for drug development in oncology programs. This approach has special potential for childhood cancers and other rare or orphan diseases, where the expected return on new drug development has been a disincentive to pharmaceuticals. […] We employed a titration-based paradigm (quantitative high-throughput screening or qHTS), where all compounds were tested at multiple concentrations for their effect on cell viability. […]
Results filed as inconclusive are left out. Activity calls are given as the source filed them. The call rests on the fitted dose curve; in most records, active means well fitted cell-killing curve with a large enough effect; inconclusive means small, poorly fitted or top-dose-only effect; inactive means flat fitted curve, though single readings scatter.
Hello, when you answer, please use one of the following outcomes: active, inactive

CCNC(=O)Nc1ccc2ncc(Nc3ccc(C)cc3)nc2n1 active
C#Cc1cccc(Nc2ncnc3cc(OC)c(OCCCCCCC(=O)NO)cc23)c1 active

What classification did `Nc1ccccc1NC(=O)c1ccc(CNC(=O)OCc2cccnc2)cc1` end up with in this test?
active

====

Method Notes: qHTS of pediatric cancer cell lines to identify multiple opportunities for drug repurposing: Primary screen for OHS-50 cells (AID 1347103); further: potency means the concentration at half of the fitted maximal effect; nearly all actives have a fitted effect of over 40% in size
Condition Info: OHS-50 osteosarcoma viability, CellTiter-Glo luminescence, 48 h; series mostly up to 57.3 µM
Records with an inconclusive call do not appear. The source made the active and inactive calls. The call rests on the fitted dose curve; in most records, active means well fitted cell-killing curve with a large enough effect; inconclusive means small, poorly fitted or top-dose-only effect; inactive means no such curve, though single readings can be large or run the other way.
Experimental Readout: Potency

CN1CC[C@@H](c2c(O)cc(O)c3c(=O)cc(-c4ccccc4Cl)oc23)[C@@H](O)C1 122 nM (active)
COc1cc(C(=O)NS(=O)(=O)c2ccccc2C)ccc1Cc1cn(C)c2ccc(NC(=O)OC3CCCC3)cc12 21700 nM (active)
CCC1=C[C@@H]2CN(C1)Cc1c([nH]c3ccccc13)[C@@](C(=O)OC)(c1cc3c(cc1OC)N(C)[C@@H]1[C@@](O)(C(=O)OC)[C@H](OC(C)=O)[C@]4(CC)C=CCN5CC[C@]31[C@@H]54)C2 43.2 nM (active)
CC(C)c1cnn2c(NCc3ccccc3)cc(N[C@@H](CO)[C@H](O)CO)nc12 273 nM (active)

Give the measured Potency of `COc1cc(C(=O)N2CCC(N3CCN(C)CC3)CC2)ccc1Nc1ncc2c(n1)N(C)c1ccccc1C(=O)N2C` .
7690 nM (active)

Give the measured Potency of `CCC[C@H](NC(=O)C(C#N)=Cc1cccc(Br)n1)c1ccccc1` .
12200 nM (active)

Give the measured Potency of `CC(C)(O)c1cc2nc(-c3cnc(N)nc3)nc(N3CCOCC3)c2s1` .
30.6 nM (active)

Give the measured Potency of `Nc1cc(C(F)(F)F)c(-c2cc(N3CCOCC3)nc(N3CCOCC3)n2)cn1` .
153 nM (active)

====

Method Notes: Quantitative High-Throughput drug screen in 47 multiple myeloma cell lines against the NCATS MIPE library collection: KMS28PE_JCRB cell viability assay (AID 1918983); further: nearly all actives have a fitted effect of over 35% in size
Condition Info: KMS28PE multiple myeloma viability, CellTiter-Glo ATP, 48 h; series mostly up to 45.8 µM
Records with an inconclusive call do not appear. Activity calls are given as the source filed them. Calls come from the whole dose curve; as a rule, active = well fitted cell-killing curve with a large enough effect; inconclusive = small, poorly fitted or top-dose-only effect, or effect the other way; inactive = no such curve, though single readings can be large or run the other way.
Hello, when you answer, please use one of the following outcomes: Y for active, N for inactive

Recorded results for 4 molecules are shown here.
Molecule	Classification
COc1cc2c(Oc3ccc4[nH]c(C)cc4c3F)ncnc2cc1OCCCN1CCCC1	Y
CC(C)(C)c1cc(C(C)(C)C)c(NC(=O)c2c[nH]c3ccccc3c2=O)cc1O	N
CC(C)c1nn(-c2c(Cl)cccc2Cl)c2nc(Cc3ccc(OCCO)cc3)[nH]c(=O)c12	Y
C=C1C(=CC=C2CCCC3(C)[C@@H]([C@H](C)C=CC=CC(O)(CC)CC)CC[C@@H]23)C[C@@H](O)C[C@@H]1O (some centres undefined)	Y

What classification did `Nc1nc(-c2nn(Cc3ccccc3F)c3ncccc23)nc(N)c1N1CCOCC1` end up with in this test?
N

What classification did `COc1c(OCCCN2CCOCC2)ccc2c3n(c(=NC(=O)c4cnc(N)nc4)nc12)CCN3` end up with in this test?
Y

What classification did `CCCCOc1c(C(=O)c2c(F)cc(C)cc2F)cnc2n[nH]cc12` end up with in this test?
Y

What classification did `O=C(O)[C@H](Cc1c[nH]c2ccccc12)N1C(=O)c2ccccc2C1=O` end up with in this test?
N

What classification did `CNC(=O)c1cc(Oc2ccc(NC(=O)Nc3cc(C(C)(C)C)nn3-c3ccc4ncccc4c3)c(F)c2)ccn1` end up with in this test?
Y
